The measured values listed here are drawn from ChEMBL document CHEMBL1201862.

- Test system: HCC 2998
- assay: NCI tumour cell line growth inhibition, 48 h
Active and inactive are the calls of the source. Cut-off read from the data, not from the text of the source: active = GI50 up to about 1.1 µM and inactive = higher.
Allowed answers: active, inactive

Use these answered entries as a reference point.
# structure smiles string, tested on, qualitative label
data = [
    ("C[N+](C)(C)CC(=O)N/N=C(\\CCC(=O)NCCc1ccccc1)CC(=O)c1ccccc1", "HCC 2998", "inactive"),
    ("CN(C)c1ccc(/N=N\\c2cccc3ncccc23)cc1", "HCC 2998", "active"),
    ("C/C(=C/C(=O)Nc1ccccc1)Nc1onc(C)c1C", "HCC 2998", "inactive"),
    ("Cc1cc(S(=O)(=O)/N=C(\\NN)NCC(=O)NN)c(S)cc1Cl", "HCC 2998", "inactive"),
]

stdin: How was NCCNc1ccc(NCCN)c2c1C(=O)c1c(O)ccc(O)c1C2=O classified in this test?
stdout: active

stdin: How was S=C1Cc2c(-c3ccccc3)cc(-c3ccc(Cl)cc3)nc2-c2ccccc2N1 classified in this test?
stdout: inactive
